- METHOD NOTES: Permeability across the lipid layer of PermeaPad calculated from Papp and Psup (Equation 3)
- Type: in vitro ADME
- TEST PARAMETERS: not told, pH 6.5, pretreatment with 50 mOsm/kg NaCl solution; calculated 1/Papp=1/Plip+1/Psup
- Source text: The permeation across the lipid layer (Plip) has been calculated using Equation (3) (Di Cagno et al., 2015). The inverse of each permeability constant represents the resistance. The sum of the resistance of the lipid layer and the support layer (Psup) composing the PermeaPad® barrier gives the resistance of the whole barrier. (3) 1/Papp=1/Plip+1/Psup
Form field: Papp (one value per entry).
Express the result in ×10⁻⁶ cm/s but write the number alone.

Field: example entries. Status: answers known.
O=C(O)CN(CC(=O)O)Cc1cc2c(cc1O)Oc1cc(O)c(CN(CC(=O)O)CC(=O)O)cc1C21OC(=O)c2ccccc21 0.8
Nc1nc2c(ncn2COCCO)c(=O)[nH]1 4.71

What the record says about Cc1ccc(-c2cc(C(F)(F)F)nn2-c2ccc(S(N)(=O)=O)cc2)cc1 : Papp is 34.2
